Origin of values: the supplement of paper PMC10567573

B1: ZNF649 (parent)
chain: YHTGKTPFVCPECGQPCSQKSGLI

Variants of: B1
Test: protein stability index of a GFP-peptide fusion (GPS, HEK-293T) (PSI 1-6); higher = more stable;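 note: lentivirally expressed fusions sorted by FACS into six bins by GFP to DsRed ratio, PSI derived from sequencing read proportions per bin multiplied by bin number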
Conditions: c terminus: a fixed tail appended
parameter: protein stability index
Respond numerically, and do not add a unit to the figure.

Below: 3 variants and their reported protein stability index.
• L23H = 2.05
• P7W = 2.04
• C17I = 2.01

# evaluate next
May I ask what protein stability index has been recorded for C17T ?
2.04
